# Target Desc: MOR (Rattus norvegicus, UniProt P33535)
# Sequence (P33535 whole entry): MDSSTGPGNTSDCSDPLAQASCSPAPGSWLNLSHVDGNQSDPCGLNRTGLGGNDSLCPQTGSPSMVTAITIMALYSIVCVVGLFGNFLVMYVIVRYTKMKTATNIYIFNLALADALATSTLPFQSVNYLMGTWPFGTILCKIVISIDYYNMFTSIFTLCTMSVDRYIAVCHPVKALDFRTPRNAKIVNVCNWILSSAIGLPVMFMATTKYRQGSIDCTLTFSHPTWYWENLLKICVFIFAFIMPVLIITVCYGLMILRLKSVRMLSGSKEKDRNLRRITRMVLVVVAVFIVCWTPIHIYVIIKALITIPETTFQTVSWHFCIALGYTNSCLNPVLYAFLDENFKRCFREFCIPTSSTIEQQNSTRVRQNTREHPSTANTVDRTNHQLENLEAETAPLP
# Procedure Summary: [35S]GTPγS assay, agonist efficacy at MOR

Structure Notation	Target Desc	EC50 [µM]
CN1CC[C@]23c4c5ccc(O)c4O[C@H]2C(=O)/C(=C/c2ccccc2)C[C@@]3(O)[C@H]1C5	MOR (Rattus norvegicus, UniProt P33535)	0.072
